Reported viability, T/C is given for each of the following compounds.
# System: 817829-284-R-J1-PDC complex spheroids, viability;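 further: spheroids exposed to the agents for seven days before readout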
# Experiment description: Anticancer human tumor 817829-284-R-J1-PDC patient-derived colon adenocarcinoma cell line growth inhibition [CLK]
# Experimental parameters: second compound 0.316 µM; first compound 1 µM; hits give low values
Express the result in % but write the number alone.

- Compound: "CC(=O)O[C@H]1C(=O)[C@@]2(C)[C@H]([C@H](OC(=O)c3ccccc3)[C@]3(O)C[C@H](OC(=O)[C@H](O)[C@@H](NC(=O)c4ccccc4)c4ccccc4)C(C)=C1C3(C)C)[C@]1(OC(C)=O)CO[C@@H]1C[C@@H]2O + CN1CCN(c2cc(C(=O)Nc3cc4cc(-c5cnn(C)c5)ccc4cn3)ccn2)CC1"
  Observed measurement: 2.04
- Compound: "O=c1[nH]cc(F)c(=O)[nH]1 + CN1CCN(c2cc(C(=O)Nc3cc4cc(-c5cnn(C)c5)ccc4cn3)ccn2)CC1"
  Observed measurement: 2.49
- Compound: "O=C(c1cc(Cc2n[nH]c(=O)c3ccccc23)ccc1F)N1CCN(C(=O)C2CC2)CC1 + CN1CCN(c2cc(C(=O)Nc3cc4cc(-c5cnn(C)c5)ccc4cn3)ccn2)CC1"
  Observed measurement: 1.63

# input for lookup
Recall and state the measured viability, T/C for C=CC(=O)N1CCN(c2nc(=O)n(-c3c(C)ccnc3C(C)C)c3nc(-c4c(O)cccc4F)c(F)cc23)C(C)C1 (centres undefined) + CN1CCN(c2cc(C(=O)Nc3cc4cc(-c5cnn(C)c5)ccc4cn3)ccn2)CC1 .
3.05
